Cited source: PubChem BioAssay (NCATS)

test: qHTS assay for small molecule disruptors of the mitochondrial membrane potential - 1 hr assay (AID 651754); settings: series mostly up to 92.2 µM; note: nearly all actives have a fitted effect of over 35% in size
Results filed as inconclusive are left out. The source made the active and inactive calls. Calls come from the whole dose curve.
Outcomes: active, inactive

• OB(O)O = inactive
• CC/C=C\C/C=C\C/C=C\CCCCCCCC(=O)O = inactive
• C[C@H](CCC(=O)O)[C@H]1CC[C@H]2[C@@H]3CC[C@@H]4C[C@H](O)CC[C@]4(C)[C@H]3C[C@H](O)[C@]12C = inactive
• C[C@H](CCC(=O)O)[C@H]1CC[C@H]2[C@@H]3[C@H](O)C[C@@H]4C[C@H](O)CC[C@]4(C)[C@H]3C[C@H](O)[C@]12C = inactive
• OCC(O)CO = inactive
• CC1=CCC2CC1C2(C)C (centres undefined) = inactive
• CC1=CC(=O)NS(=O)(=O)O1 = inactive
• Oc1ccc(/C=C/c2cc(O)cc(O)c2)cc1 = active
• CC(C)O = inactive
• Nc1ncnc2c1ncn2[C@H]1CC[C@@H](CO)O1 = inactive
• CCCCC = inactive
• O=P(O)(O)O = inactive
• CO/N=C(/C(=O)N[C@@H]1C(=O)N2C(C(=O)O)=C(COC(N)=O)CS[C@H]12)c1ccco1 = inactive
• OC[C@H]1O[C@@H]2O[C@H]3[C@H](O)[C@@H](O)[C@@H](O[C@H]4[C@H](O)[C@@H](O)[C@@H](O[C@H]5[C@H](O)[C@@H](O)[C@@H](O[C@H]6[C@H](O)[C@@H](O)[C@@H](O[C@H]7[C@H](O)[C@@H](O)[C@@H](O[C@H]1[C@H](O)[C@H]2O)O[C@@H]7CO)O[C@@H]6CO)O[C@@H]5CO)O[C@@H]4CO)O[C@@H]3CO = inactive
• O=c1n(CC2CO2)c(=O)n(CC2CO2)c(=O)n1CC1CO1 (centres undefined) = inactive
• CC[C@H]1OC(=O)[C@H](C)[C@@H](O[C@H]2C[C@@](C)(OC)[C@@H](O)[C@H](C)O2)[C@H](C)[C@@H](O[C@@H]2O[C@H](C)C[C@H](N(C)C)[C@H]2O)[C@](C)(O)C[C@@H](C)CN(C)[C@H](C)[C@@H](O)[C@]1(C)O = inactive
• OCc1ccccc1 = inactive
• CCCCO = inactive
• NC(N)=O = inactive

---

test system: GB4; test: qHTS profiling for inhibitors of Plasmodium falciparum proliferation (AID 504749); note: nearly all actives have a fitted effect of over 60% in size; conditions: P. falciparum in erythrocytes, SYBR Green DNA, 72 h; series mostly up to 28.7 µM
Inconclusive results are not listed. The source made the active and inactive calls. The call rests on the fitted dose curve; in most records, active means well fitted inhibition curve with a large enough effect; inconclusive means small, poorly fitted or top-dose-only effect; inactive means flat fitted curve, though single readings scatter.
Outcomes: True = active, False = inactive

* COC(=O)CCC[N+](C)(C)C | False
* FC(F)OC(Cl)C(F)(F)F (stereo unspecified) | False
* Cc1ccc(C(C)(C)c2ccc(C)cc2)cc1 | False
* Cc1cc(=O)c(C(=O)N[C@@H](C(=O)N[C@@H]2C(=O)N3C(C(=O)O)=C(CSc4nnnn4C)CS[C@H]23)c2ccc(O)cc2)c[nH]1 | False
* CC(=O)Nc1c(I)c(C(=O)O)c(I)c(N(C)C(C)=O)c1I | False
* Cn1cc(NC(=O)c2cc(NC(=O)c3cc(NC=O)cn3C)cn2C)cc1C(=O)NCCC(=N)N | True
* Cc1ccccn1 | False
* CCCC(=O)O | False
* CCCCC[C@H](O)/C=C/[C@@H]1[C@H]2C/C(=C/CCCC(=O)O)O[C@H]2C[C@H]1O | False
* C(=C\c1ccncc1)/c1ccccc1 | False
* CO/N=C(\C(=O)N[C@@H]1C(=O)N2C(C(=O)[O-])=C(C[n+]3cccc4c3CCC4)CS[C@H]12)c1csc(N)n1 | False

---

Test system: C2A
Assay: qHTS profiling for inhibitors of Plasmodium falciparum proliferation (AID 504749); note: nearly all actives have a fitted effect of over 60% in size
Settings: P. falciparum in erythrocytes, SYBR Green DNA, 72 h; series mostly up to 28.7 µM
Description: NIH National Institute of Allergy and Infectious Diseases [NIAID] NIH Chemical Genomics Center [NCGC] […] Because mature erythrocytes lack DNA, only Plasmodium-derived DNA is detected. NCGC Assay Protocol Summary: The SYBR Green viability assay was adapted from a method described previously (Plouffe et al., 2008). […] The following morning, fluorescence intensity at 485(14) nm excitation and 535(25) nm emission wavelengths was measured on an EnVision (Perkin Elmer) plate reader. […]
Records with an inconclusive call do not appear. Activity calls are given as the source filed them. Calls come from the whole dose curve; as a rule, active = well fitted inhibition curve with a large enough effect; inconclusive = small, poorly fitted or top-dose-only effect; inactive = flat fitted curve, though single readings scatter.
Outcomes: yes for active, no for inactive

• C[C@H]1O[C@@H](O[C@H]2[C@@H](O)C[C@H](O[C@H]3[C@@H](O)C[C@H](O[C@H]4CC[C@@]5(C)[C@H](CC[C@@H]6[C@@H]5C[C@@H](O)[C@]5(C)[C@@H](C7=CC(=O)OC7)CC[C@]65O)C4)O[C@@H]3C)O[C@@H]2C)C[C@H](O)[C@@H]1O = no
• OC[C@H]1O[C@@H]2O[C@H]3[C@H](O)[C@@H](O)[C@@H](O[C@H]4[C@H](O)[C@@H](O)[C@@H](O[C@H]5[C@H](O)[C@@H](O)[C@@H](O[C@H]6[C@H](O)[C@@H](O)[C@@H](O[C@H]7[C@H](O)[C@@H](O)[C@@H](O[C@H]1[C@H](O)[C@H]2O)O[C@@H]7CO)O[C@@H]6CO)O[C@@H]5CO)O[C@@H]4CO)O[C@@H]3CO = no
• COC(=O)CC[C@H](N)C(=O)O = no
• CC(C)NCC(O)COc1ccccc1-n1cccc1 (stereo unspecified) = no
• Cn1cc(NC(=O)c2cc(NC(=O)c3cc(NC=O)cn3C)cn2C)cc1C(=O)NCCC(=N)N = yes
• Cc1ccc(S(=O)(=O)O)cc1C = no

---

test: Drug repurposing screens with cells derived from glioblastoma tumor samples (AID 1345199); settings: GBM patient neurospheres viability, ATP luminescence, 48 h; at 45.9 µM (top of the series); tumour line D; note: % is set by controls: 0 for no effect and ±100 for the full control effect; nearly all actives have a fitted effect of over 40% in size
Inconclusive results are not listed. *1 amine or outer side, *2 acyl side, *3 side chain or, on linkers, in order; H or OH if unused. Where a SMILES comes first, the peptide text is derived from it. Bridges are numbered along the chain shown (N, C = ends). [ ]: non-standard residue; d: D form. The star is where a group is joined. X5 = NC1=N[C@@H]([C@H](N[*:1])C(=O)[*:2])C[C@H](O)N1; ΔAla(Z-3-ureido) = NC(=O)N/C=C(\N)C(=O)O; β3hOrn = NCCC[C@H](N)CC(=O)*; Dap = NC[C@H](N)C(=O)O
Test Readout: activity, negative = cell killing (%)

• Oc1ccc(Cl)c2c1CCC2 = -3.41
• C=CC(C)(O)CC/C=C(\C)CCC=C(C)C (stereo unspecified) = -9.56
• CC1CCC(NC(=O)N(CCCl)N=O)CC1 (stereo unspecified) = 0.785
• NCCN = -17.5
• NCCC[C@H](N)CC(=O)N[C@H]1CNC(=O)[C@H]([C@H]2C[C@H](O)NC(N)=N2)NC(=O)/C(=C/NC(N)=O)NC(=O)[C@H](CO)NC(=O)[C@H](CO)NC1=O (β3hOrn-[Dap]SS[ΔAla(Z-3-ureido)][X5]; lactam 1-C) = -12.2
• COc1ccc(C(=O)CCC(=O)O)c2ccccc12 = 1.24
• Cc1c(O)c(=O)ccn1C = -8.06
• CC(C)Cc1ccc([C@@H](C)C(=O)NS(C)(=O)=O)cc1 = -14.1
• O=C(/C=C/c1cccc(F)c1)NC1CC1 = -4.02
• O=C(O)CCC/C=C\C[C@@H]1[C@@H](/C=C/[C@@H](O)COc2cccc(Cl)c2)[C@H](O)C[C@@H]1O = 0.189
• O=C1N=C2SCCN2C(=O)C1Cc1ccc(Cl)cc1 (stereo unspecified) = -11.7

---

assay: Primary qHTS for inhibitors of nuclear receptor binding SET domain protein 2 (NSD2) in an isogenic RCH-ACV NSD2 p.E1099K mutant (9B) (AID 1645876); settings: RCH-ACV (leukaemia line) NSD2 E1099K (9B) viability, CellTiter-Glo, 72 h; series mostly up to 44.9 µM; note: nearly all actives have a fitted effect of over 70% in size
Records with an inconclusive call do not appear. The source made the active and inactive calls. Calls follow the shape of the dose curve; as a rule, active = well fitted inhibition curve with a large enough effect; inconclusive = small, poorly fitted or top-dose-only effect; inactive = flat fitted curve, though single readings scatter.
Outcomes: active, inactive

- CCCCC[C@H](O)/C=C/[C@H]1[C@H](O)CC(=O)[C@@H]1CCCCCCC(=O)O: active
- COc1ccc([C@@H]2CC(=O)c3c(O)cc(O[C@@H]4O[C@H](CO[C@@H]5O[C@@H](C)[C@H](O)[C@@H](O)[C@H]5O)[C@@H](O)[C@H](O)[C@H]4O)cc3O2)cc1O: inactive
- Oc1ccc(/C=C/c2cc(O)cc(O)c2)cc1: active
- CC[C@H]1OC(=O)[C@H](C)[C@@H](O[C@H]2C[C@@](C)(OC)[C@@H](O)[C@H](C)O2)[C@H](C)[C@@H](O[C@@H]2O[C@H](C)C[C@H](N(C)C)[C@H]2O)[C@](C)(O)C[C@@H](C)CN(C)[C@H](C)[C@@H](O)[C@]1(C)O: inactive
- CC(=O)NCCCS(=O)(=O)O: inactive
